TEST TARGET: A. baumannii PBP1a (Acinetobacter baumannii)
Sequence (A0ABX6CK30 1-851): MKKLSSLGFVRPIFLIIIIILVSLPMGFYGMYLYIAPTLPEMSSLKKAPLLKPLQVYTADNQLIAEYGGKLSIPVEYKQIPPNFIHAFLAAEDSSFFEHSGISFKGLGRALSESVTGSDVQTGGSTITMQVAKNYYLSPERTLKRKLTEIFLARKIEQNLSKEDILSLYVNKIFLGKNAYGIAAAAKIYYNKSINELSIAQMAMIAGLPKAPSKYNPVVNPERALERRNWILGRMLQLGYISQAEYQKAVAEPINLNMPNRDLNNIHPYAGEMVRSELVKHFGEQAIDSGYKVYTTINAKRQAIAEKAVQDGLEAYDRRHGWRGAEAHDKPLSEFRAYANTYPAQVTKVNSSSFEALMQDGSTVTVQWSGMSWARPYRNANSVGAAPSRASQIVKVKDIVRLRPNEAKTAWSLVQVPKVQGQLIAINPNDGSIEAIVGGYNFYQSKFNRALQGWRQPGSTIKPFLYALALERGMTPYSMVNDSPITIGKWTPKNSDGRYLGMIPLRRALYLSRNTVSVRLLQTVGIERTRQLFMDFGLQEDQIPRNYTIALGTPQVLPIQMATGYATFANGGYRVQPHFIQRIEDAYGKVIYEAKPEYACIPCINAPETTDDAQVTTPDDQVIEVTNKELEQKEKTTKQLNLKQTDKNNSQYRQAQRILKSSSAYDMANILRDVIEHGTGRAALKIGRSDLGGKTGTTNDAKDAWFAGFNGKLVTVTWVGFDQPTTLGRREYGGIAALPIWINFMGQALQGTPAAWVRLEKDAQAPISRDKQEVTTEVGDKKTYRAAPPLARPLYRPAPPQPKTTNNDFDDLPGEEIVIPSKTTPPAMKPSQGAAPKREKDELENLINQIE
PROCEDURE SUMMARY: Bocillin-FL competition binding via gel filtration, A. baumannii PBP1a
MEASUREMENT CONTEXT: competition binding assay using Bocillin-FL via gel filtration; read-out: A. baumannii PBP1a Potency
pEC50: −log10 of the molar value.
Documented pEC50 across a set of compounds

query: Please list pEC50 recorded for the compound O=C(O)c1c(F)ccc2c1OB(O)[C@@H](NC(=O)C(NC(=O)N1CCN(C3CCN(C(=O)c4ccc(O)cc4O)CC3)C(=O)C1=O)c1cc(F)c(O)c(O)c1Cl)C2 (stereo partly shown)
result: 4.30 to 5.00

query: Please list pEC50 recorded for the compound CN(CCN1CCN(C(=O)N[C@@H](C(=O)N[C@H]2Cc3ccc(F)c(C(=O)O)c3OB2O)c2cc(F)c(O)c(O)c2Cl)C(=O)C1=O)Cc1ccc(C(N)=O)cc1
result: 4.30 to 5.00

----------
Documented MIC across a set of molecules
Tested on: A. baumannii CDC-0083
PROCEDURE SUMMARY: microbe, parasite or virus in culture
Format: cell-based
MEASUREMENT CONTEXT: Acinetobacter baumannii, CDC0083, read-out: MIC, A. baumannii CDC-0083

query: Please list MIC recorded for the molecule O=C(O)c1c(F)ccc2c1OB(O)[C@@H](NC(=O)C(NC(=O)N1CCN(C3CCN(C(=O)c4cccc(O)c4)CC3)C(=O)C1=O)c1cc(F)c(O)c(O)c1Cl)C2 (stereo partly shown)
result: < 1 µg/mL

query: Please list MIC recorded for the molecule O=C(O)c1c(F)ccc2c1OB(O)[C@@H](NC(=O)C(NC(=O)N1CCN(C3CCN(S(=O)(=O)c4cccc(O)c4)CC3)C(=O)C1=O)c1cc(F)c(O)c(O)c1Cl)C2 (stereo partly shown)
result: 8 to 16 µg/mL

query: Please list MIC recorded for the molecule O=C(CN1CCN(C(=O)NC(C(=O)N[C@H]2Cc3ccc(F)c(C(=O)O)c3OB2O)c2cc(F)c(O)c(O)c2Cl)C(=O)C1=O)NCc1ccc(O)cc1 (stereo partly shown)
result: > 128 µg/mL

query: Please list MIC recorded for the molecule O=C(NCCS(=O)(=O)N1CCN(C(=O)N[C@@H](C(=O)N[C@H]2Cc3ccc(F)c(C(=O)O)c3OB2O)c2cc(F)c(O)c(O)c2Cl)C1=O)Nc1cccnc1
result: < 1 µg/mL

query: Please list MIC recorded for the molecule CN(CCCN1CCN(C(=O)NC(C(=O)N[C@H]2Cc3ccc(F)c(C(=O)O)c3OB2O)c2cc(F)c(O)c(O)c2Cl)C(=O)C1=O)C(=O)c1cccc(O)c1 (stereo partly shown)
result: < 1 µg/mL

query: Please list MIC recorded for the molecule O=C(NCCCS(=O)(=O)N1CCN(C(=O)NC(C(=O)N[C@H]2Cc3ccc(F)c(C(=O)O)c3OB2O)c2cc(F)c(O)c(O)c2Cl)C1=O)Nc1ccncc1 (stereo partly shown)
result: < 1 µg/mL

Now, please, on to the next molecule.
query: Please list MIC recorded for the molecule O=C(N[C@@H](C(=O)N[C@H]1Cc2cccc(C(=O)O)c2OB1O)c1ccc(P(=O)(O)O)cc1)c1ccc(O)c(O)c1Cl
result: > 128 µg/mL

----------
Tested on: P. aeruginosa ATCC 27853
PROCEDURE SUMMARY: microbe, parasite or virus in culture
Format: cell-based
MEASUREMENT CONTEXT: Pseudomonas aeruginosa, ATCC27853, read-out: Minimum inhibitory concentration, P. aeruginosa ATCC 27853
RECORDED ENDPOINT: MIC

query: Please list MIC recorded for the compound O=C(O)c1c(F)ccc2c1OB(O)[C@@H](NC(=O)[C@H](NC(=O)N1CCN(C3CCN(S(=O)(=O)c4ccc5[nH]nnc5c4)CC3)C1=O)c1cc(F)c(O)c(O)c1F)C2 [Example 622]
result: 2 to 4 µg/mL

query: Please list MIC recorded for the compound O=C(NCCS(=O)(=O)N1CCN(C(=O)NC(C(=O)N[C@H]2Cc3ccc(F)c(C(=O)O)c3OB2O)c2cc(F)c(O)c(O)c2Cl)C1=O)Nc1ccc(O)cc1 (stereo partly drawn) [Example 289]
result: 2 to 4 µg/mL

query: Please list MIC recorded for the compound CN(CCN1CCN(C(=O)N[C@@H](C(=O)N[C@H]2Cc3ccc(F)c(C(=O)O)c3OB2O)c2cc(F)c(O)c(O)c2Cl)C(=O)C1=O)Cc1cccnc1 [Example 201]
result: < 1 µg/mL

query: Please list MIC recorded for the compound O=C(O)c1c(F)ccc2c1OB(O)[C@@H](NC(=O)[C@H](NC(=O)N1CCN(Cc3ccc(O)c(O)c3Cl)C(=O)C1=O)c1cc(F)c(P(=O)(O)O)c(F)c1)C2 [Example 502]
result: < 1 µg/mL

query: Please list MIC recorded for the compound O=C(O)c1c(F)ccc2c1OB(O)[C@@H](NC(=O)[C@H](NC(=O)N1CCN(C3CCN(C(=O)Nc4cc(O)ccc4Cl)CC3)C1=O)c1cc(F)c(O)c(O)c1Cl)C2 (single isomer, unassigned) [Example 448]
result: < 1 µg/mL

query: Please list MIC recorded for the compound O=C(NCCCN1CCN(C(=O)NC(C(=O)N[C@H]2Cc3ccc(F)c(C(=O)O)c3OB2O)c2cc(F)c(O)c(O)c2Cl)C(=O)C1=O)c1ccncc1Cl (stereo partly drawn) [Example 295]
result: 2 to 4 µg/mL

query: Please list MIC recorded for the compound O=C(O)c1c(F)ccc2c1OB(O)[C@@H](NC(=O)C(NC(=O)N1CCN(C3CCN(C(=O)Nc4ccc(F)c(O)c4F)CC3)C(=O)C1=O)c1cc(F)c(O)c(O)c1Cl)C2 (stereo partly drawn) [Example 486]
result: 2 to 4 µg/mL

query: Please list MIC recorded for the compound O=C(NCCCN1CCN(C(=O)NC(C(=O)N[C@H]2Cc3ccc(F)c(C(=O)O)c3OB2O)c2cc(F)c(O)c(O)c2Cl)C(=O)C1=O)c1c(F)ccc(O)c1F (stereo partly drawn) [Example 413]
result: < 1 µg/mL

---
query: Please list MIC recorded for the compound O=C(O)c1c(F)ccc2c1OB(O)[C@@H](NC(=O)[C@H](NC(=O)N1CCN(C3CCN(C(=O)Nc4cc(O)cc(F)c4)CC3)C1=O)c1cc(F)c(O)c(O)c1Cl)C2 (single isomer, unassigned) [Example 450]
result: < 1 µg/mL

----------
Documented MIC across a set of molecules
Tested on: N. gonorrhoeae WHO Q
PROCEDURE SUMMARY: Liquid broth MIC in Fastidious broth
MEASUREMENT CONTEXT: Neisseria gonorrhoeae, read-out: Minimum Inhibitory Concentration (MIC), N. gonorrhoeae WHO Q

query: Please list MIC recorded for the molecule O=C(O)c1cccc2c1OB(O)[C@@H](NC(=O)C(NC(=O)C1CC1)c1ccc(P(=O)(O)O)cc1)C2 (some centres unmarked) [Example 30]
result: 16 to 32 µg/mL

query: Please list MIC recorded for the molecule NC(=O)c1ccc(C(=O)NC(C(=O)N[C@H]2Cc3cccc(C(=O)O)c3OB2O)c2ccc(P(=O)(O)O)cc2)nc1 (some centres unmarked) [Example 188]
result: 1 to 2 µg/mL

query: Please list MIC recorded for the molecule CC(C)(C)C(=O)NC(C(=O)N[C@H]1Cc2cccc(C(=O)O)c2OB1O)c1ccc(P(=O)(O)O)cc1 (some centres unmarked) [Example 29]
result: 16 to 32 µg/mL

---
query: Please list MIC recorded for the molecule O=C(CN1CCN(C(=O)NC(C(=O)N[C@H]2Cc3ccc(F)c(C(=O)O)c3OB2O)c2cc(F)c(O)c(O)c2Cl)C(=O)C1=O)Nc1nccs1 (some centres unmarked) [Example 235]
result: 16 to 32 µg/mL

query: Please list MIC recorded for the molecule CN1CCN(C(=O)NC(C(=O)N[C@H]2Cc3cccc(C(=O)O)c3OB2O)c2ccc(P(=O)(O)O)cc2)C1=O (some centres unmarked) [Example 41]
result: < 1 µg/mL

----------
TEST TARGET: PBP3 from Escherichia coli (K-12) (Escherichia coli)
Construct: made in house
Sequence (P0AD68 1-577): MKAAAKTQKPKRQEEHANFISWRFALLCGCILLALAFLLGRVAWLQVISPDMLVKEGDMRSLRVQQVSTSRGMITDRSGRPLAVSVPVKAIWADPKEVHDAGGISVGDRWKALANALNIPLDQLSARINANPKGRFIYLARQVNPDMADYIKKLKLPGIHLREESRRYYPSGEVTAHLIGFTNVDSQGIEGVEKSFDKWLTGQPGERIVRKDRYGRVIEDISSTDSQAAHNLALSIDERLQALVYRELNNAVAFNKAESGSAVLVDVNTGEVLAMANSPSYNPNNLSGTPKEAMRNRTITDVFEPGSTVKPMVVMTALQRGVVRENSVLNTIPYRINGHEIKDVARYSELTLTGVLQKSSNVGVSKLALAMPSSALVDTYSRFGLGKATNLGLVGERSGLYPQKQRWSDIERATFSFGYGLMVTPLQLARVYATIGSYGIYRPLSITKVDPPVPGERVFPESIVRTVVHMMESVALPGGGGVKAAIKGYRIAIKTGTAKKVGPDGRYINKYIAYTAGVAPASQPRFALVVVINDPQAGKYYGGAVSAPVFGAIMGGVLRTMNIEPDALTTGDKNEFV
PROCEDURE SUMMARY: Bocillin-FL fluorescence polarization competition binding, E. coli PBP3
pEC50: −log10 of the molar value.
RECORDED ENDPOINT: pEC50

query: Please list pEC50 recorded for the compound O=C(O)c1c(F)ccc2c1OB(O)[C@@H](NC(=O)C(NC(=O)N1CCN(C3CCN(S(=O)(=O)c4cccc(O)c4)CC3)C(=O)C1=O)c1cc(F)c(O)c(O)c1Cl)C2 (stereo partly shown)
result: > 5.00

query: Please list pEC50 recorded for the compound O=C(NCCCN1CCN(C(=O)NC(C(=O)N[C@H]2Cc3ccc(F)c(C(=O)O)c3OB2O)c2cc(F)c(O)c(O)c2Cl)C(=O)C1=O)c1ccc(O)c(F)c1F (stereo partly shown)
result: > 5.00

query: Please list pEC50 recorded for the compound O=C(NCCCN1CCN(C(=O)NC(C(=O)N[C@H]2Cc3ccc(F)c(C(=O)O)c3OB2O)c2cc(F)c(O)c(O)c2Cl)C(=O)C1=O)c1cc(O)ccc1Cl (stereo partly shown)
result: > 5.00

---
query: Please list pEC50 recorded for the compound O=C(NCCCN1CCN(C(=O)NC(C(=O)N[C@H]2Cc3ccc(F)c(C(=O)O)c3OB2O)c2cc(F)c(O)c(O)c2Cl)C(=O)C1=O)c1ccc(O)cc1O (stereo partly shown)
result: > 5.00

query: Please list pEC50 recorded for the compound O=C(NCCCS(=O)(=O)N1CCN(C(=O)NC(C(=O)N[C@H]2Cc3ccc(F)c(C(=O)O)c3OB2O)c2cc(F)c(O)c(O)c2Cl)C1=O)c1nccs1 (stereo partly shown)
result: > 5.00

query: Please list pEC50 recorded for the compound O=C(NCCCS(=O)(=O)N1CCN(C(=O)NC(C(=O)N[C@H]2Cc3ccc(F)c(C(=O)O)c3OB2O)c2cc(F)c(O)c(O)c2Cl)C1=O)Nc1ccc(O)cc1 (stereo partly shown)
result: > 5.00
